Provenance of the data: PubChem BioAssay (NCI)

tested on: SK-OV-3 ovarian; assay: NCI tumour cell line growth inhibition, 48 h; in the data active = GI50 below about 0.43 µM; inactive = the rest
Return exactly one item of Yes for active, No for inactive

// outcome(item) with item = COc1cc(Cn2ccc3c2-c2oncc2CC3)cc(OC)c1
No

// outcome(item) with item = CCCCCCCCCCCC[n+]1ccccc1
No

// outcome(item) with item = COc1ccc(/C=C/C(=O)c2ccc3cc(OC)c(OC)cc3c2)cc1OC
No

// outcome(item) with item = CCC[CH2][Ge]([CH2]CCC)([CH2]CCC)[O]C(=O)C(OC)c1ccccc1 (stereo not drawn)
No

// outcome(item) with item = ICCC(c1ccccc1)(c1ccccc1)c1ccccc1
No

// outcome(item) with item = CO[C@H]1C[C@@H]2CC[C@@H](C)[C@@](O)(O2)C(=O)C(=O)N2CCCC[C@H]2C(=O)O[C@H]([C@H](C)C[C@@H]2CC[C@@H](OP(C)(C)=O)[C@H](OC)C2)CC(=O)[C@H](C)/C=C(\C)[C@@H](O)[C@@H](OC)C(=O)[C@H](C)C[C@H](C)/C=C/C=C/C=C/1C
No

// outcome(item) with item = CNNC(=N\S(=O)(=O)c1cc(C(=O)Nc2ccc(Cl)cc2)c(Cl)cc1SCc1ccccc1)/N=C/c1ccc([N+](=O)[O-])s1
No

// outcome(item) with item = CC(=O)OC1CCC2(C)C(CCC3C4CC=C(C(C)=O)C4(C)OC(=O)CC32)C1 (stereo not drawn)
No

// outcome(item) with item = COc1ccc2[nH]c(=O)c(/C=C/C(=O)/C=C/c3ccc(O)c(OC)c3)cc2c1
No

// outcome(item) with item = Cc1ncc(C(=O)Nc2ccc(CN3CCN(C)CC3)c(C(F)(F)F)c2)cc1C#Cc1cnc(N)c2ncccc12
Yes

// outcome(item) with item = O=C(OCC1OC(OC(=O)c2cc(O)c(O)c(OC(=O)c3cc(O)c(O)c(O)c3)c2)C(OC(=O)c2cc(O)c(O)c(OC(=O)c3cc(O)c(O)c(O)c3)c2)C(OC(=O)c2cc(O)c(O)c(OC(=O)c3cc(O)c(O)c(O)c3)c2)C1OC(=O)c1cc(O)c(O)c(OC(=O)c2cc(O)c(O)c(O)c2)c1)c1cc(O)c(O)c(OC(=O)c2cc(O)c(O)c(O)c2)c1 (stereo not drawn)
No

// outcome(item) with item = ClC1=NC(Cl)C(Cl)=N/C1=N\c1ncn[nH]1 (stereo not drawn)
No

// outcome(item) with item = Nc1c(C(=O)c2cccc(C#CCN3CCOCC3)c2)cnn1-c1ccc(F)cc1
No

// outcome(item) with item = Nc1c(C(=O)c2cccc(CCC3(O)CCCC3)c2)cnn1-c1ccc(F)cc1
No

// outcome(item) with item = C/C(=N\NC(=O)c1ccccc1O)c1cccc(/C(C)=N/NC(=O)c2ccccc2O)n1
No

// outcome(item) with item = C[C@H]1[C@H](C)CC[C@]2(C(=O)O)CC[C@]3(C)C(=CC[C@@H]4[C@@]5(C)CC[C@H](OC(=O)/C=C/c6ccc(O)cc6)C(C)(C)[C@@H]5CC[C@]43C)[C@H]12
No

// outcome(item) with item = Fc1ccc(-c2nnc3sc(COc4ccccc4Cl)nn23)cc1Cl
No

// outcome(item) with item = CC1(C)N=C(N)N=C(N)N1c1cccc(CCCCc2ccccc2)c1
No
